Molecular target: these two hybridoma culture supernatants
Assay: competitive EIA against biotinylated goby urotensin II
parameter: IC50

Let me know recorded IC50 for ETPDCFWKYCV [human urotensin II] , thanks.
0.5 to 2 nM
